experiment: in vitro; details: Sprague-Dawley, rat, liver microsomes
Description: Metabolic stability in Sprague-Dawley rat liver microsomes assessed as parent compound remaining at 0.1 uM measured after 30 mins in presence of NADPH by LC-MS/MS analysis
PROPERTY NAME: remaining at 0.5 h, 0.1 µM (%)

Sample answers from the record:
C[C@@]1(c2cc(NC(=O)c3ccc(F)cn3)ccc2F)C=CSC(N)=N1 ... 60
C[C@@]1(c2cc(NC(=O)c3ccc(C#N)cn3)ccc2F)CCSC(N)=N1 ... 66
C[C@@]1(c2cc(NC(=O)c3ccc(Cl)cn3)ccc2F)C=CSC(N)=N1 ... 76
C[C@@]1(c2cc(NC(=O)c3ncc(C#N)cc3Cl)ccc2F)C=CSC(N)=N1 ... 87
N#Cc1ccc(C(=O)Nc2ccc(F)c([C@]3(CF)CCSC(N)=N3)c2)nc1 ... 64

A = COc1cnc(C(=O)Nc2ccc(F)c([C@]3(C)C=CSC(N)=N3)c2)cn1
B = C=C1C[C@@](C)(c2cc(NC(=O)c3ccc(C#N)cn3)ccc2F)N=C(N)S1
### Prompt Field: lower recorded remaining at 0.5 h, 0.1 µM (choose A or B ) Answer by quoting the chosen item's label.
### Response B

src = ChEMBL document CHEMBL4811232
